species on record: Rattus norvegicus; assay: DrugMatrix - Regimen: Daily Repeat; format: toxicity, organism-based, Sprague-Dawley; parameters: regimen Daily Repeat, gender Male, age 6-8 weeks; settings: in vivo, po, 0 mg/kg, 72 h, tissue Blood, route oral GAVAGE, dose level Control, time 3 day, vehicle 100 % WATER
Property label: HEMOGLOBIN (G/DL)

> print(dat)
                                   compound  property.label  recorded.value
1  CCN(CC)CC#CCOC(=O)C(O)(c1ccccc1)C1CCCCC1 (stereo not given)      HEMOGLOBIN           13.72
2         CCCCCCCCCCCCCCCC[n+]1ccccc1.[Br-]      HEMOGLOBIN           14.28
3           CCN[C@@H](C)Cc1cccc(C(F)(F)F)c1      HEMOGLOBIN           14.12
4       CC(C)(C)NC[C@H](O)COc1nsnc1N1CCOCC1      HEMOGLOBIN           13.33
5  CN1C2CCCC1CC(NC(=O)c1nn(C)c3ccccc13)C2 (stereo not given)      HEMOGLOBIN           13.33
